In this section we review reported maximal fold induction values for a set of compounds.
# Tested on: SMN2-linked luciferase-reporter gene construct
# experiment.description: SMN splice reporter assay (SMN2-linked luciferase reporter, Example 10)
# Format: cell-based
# study.conditions: SMN2-linked luciferase reporter; average maximum fold increase; read-out: SMN Splice Reporter Assay (Example 10) Avg MaxFold Increase
assay.endpoint: maximal fold induction

> print(dat)
                                    compound          assay.endpoint  observed
 1  CC(C(=O)O)c1ccc(N2Cc3ccc(OC(F)F)cc3C2=O)cc1 (centres unmarked)  maximal fold induction      1.54
 2  CC(C)=Cc1ccc2c(c1)C(=O)N(c1ccc(C(C)C)cc1)C2  maximal fold induction       1.3
 3   Cc1ccc2c(c1)C(=O)N(c1ccc(C3CCCC3)cc1)C2  maximal fold induction      1.08
 4    COc1ccc2c(c1)C(=O)N(c1ccc(C3CC3)cc1)C2  maximal fold induction      1.26
 5  CC(C#N)c1ccc(N2Cc3cc4c(cc3C2=O)OCCO4)cc1 (centres unmarked)  maximal fold induction       1.3
 6  CC(C)NC(=O)Nc1ccc2c(c1)C(=O)N(c1ccc(C(C)C)cc1)C2  maximal fold induction       1.1
 7   CC(C)c1ccc(N2Cc3ccc(NC(N)=O)cc3C2=O)cc1  maximal fold induction      1.67
 8  CNC(=O)Nc1ccc2c(c1)C(=O)N(c1ccc(C(C)C)cc1)C2  maximal fold induction      1.58
 9      O=C1c2cc(Br)ccc2CN1c1ccc(C2CCCC2)cc1  maximal fold induction      1.36
10        Cc1ccc(N2Cc3ccc(OC(F)F)cc3C2=O)cc1  maximal fold induction      1.46
11      CC(C)c1ccc(N2Cc3ccc(O)c(O)c3C2=O)cc1  maximal fold induction      1.07
12         CC(C)c1ccc(N2Cc3cccc(O)c3C2=O)cc1  maximal fold induction      1.54
13  CC(C)c1ccc(N2Cc3ccc(NC(=O)N(C)c4ccccc4)cc3C2=O)cc1  maximal fold induction      1.12
14    O=C1c2cc3c(cc2CN1c1ccc(C2CC2)cc1)OCCO3  maximal fold induction      1.57
15        Cc1ccc(N2Cc3cc4c(cc3C2=O)OCCO4)cc1  maximal fold induction      1.54
16         CC(C)c1ccc(N2Cc3cc(O)ccc3C2=O)cc1  maximal fold induction      1.15
17     COc1cc2c(cc1O)CN(c1ccc(C(C)C)cc1)C2=O  maximal fold induction      1.13
18     CC(C)c1ccc(N2Cc3ccc4c(c3C2=O)OCO4)cc1  maximal fold induction      1.34
19  CC(C)c1ccc(N2Cc3ccc(N(C)C(=O)N(C)C)cc3C2=O)cc1  maximal fold induction      1.31
20  CC(C)c1ccc(N2Cc3ccc(NC(=O)N(C)C)cc3C2=O)cc1  maximal fold induction       1.2
